Biological target: human B-Raf (Homo sapiens, UniProt P15056)
Construct: Flag; GST; made in house; host or cells: Sf9 insect cells (B-Raf); E. coli (MEK1-GST)
Sequence (P15056 whole entry): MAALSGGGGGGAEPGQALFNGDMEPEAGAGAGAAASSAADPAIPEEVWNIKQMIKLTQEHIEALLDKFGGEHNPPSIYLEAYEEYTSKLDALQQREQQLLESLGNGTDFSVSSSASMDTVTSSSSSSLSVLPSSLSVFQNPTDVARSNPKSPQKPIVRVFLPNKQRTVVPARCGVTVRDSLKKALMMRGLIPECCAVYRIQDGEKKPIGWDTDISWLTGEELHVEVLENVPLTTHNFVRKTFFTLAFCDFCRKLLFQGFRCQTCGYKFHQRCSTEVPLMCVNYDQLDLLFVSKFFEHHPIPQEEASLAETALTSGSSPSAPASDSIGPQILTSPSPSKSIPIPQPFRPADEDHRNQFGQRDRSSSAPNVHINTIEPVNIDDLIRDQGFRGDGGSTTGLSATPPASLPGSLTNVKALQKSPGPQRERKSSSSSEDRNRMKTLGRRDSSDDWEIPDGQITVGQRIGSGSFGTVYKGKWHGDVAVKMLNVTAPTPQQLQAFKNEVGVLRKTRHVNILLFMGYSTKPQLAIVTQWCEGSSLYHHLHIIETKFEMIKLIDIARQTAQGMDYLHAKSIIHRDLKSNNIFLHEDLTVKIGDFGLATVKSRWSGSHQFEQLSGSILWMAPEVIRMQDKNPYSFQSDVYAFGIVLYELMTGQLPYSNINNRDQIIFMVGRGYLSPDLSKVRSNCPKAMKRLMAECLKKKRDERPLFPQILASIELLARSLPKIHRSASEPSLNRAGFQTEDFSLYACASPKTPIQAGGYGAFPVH
Assay: B-Raf Kinase to MEK1 ELISA
Assay type: biochemical
Conditions: median; cpd concentrations from 10 μM to 30 nM in half log dilutions; read-out: Median IC50
Parameter: IC50. Scope: all listed entries.

// solved cases for IC50 follow
Fill in: IC50 of O=C(Nc1cccc(-c2ccnc3c(-c4ccc(C(F)(F)F)cc4)cnn23)c1)c1cccc(C(F)(F)F)c1 [Example 292] is ___
> 10 µM

Endpoint output: IC50 of O=C(Nc1cccc(-c2ccnc3c(Br)cnn23)c1)c1ccc(Cl)c(Cl)c1 [Example 165] . Value?
> 10 µM

Please give the measured IC50 for this compound: Cn1cc(-c2cnn3c(-c4cccc(NC(=O)c5cccc(C(F)(F)F)c5)c4)ccnc23)cn1 [Example 308]
0.281 µM

What does the data say about its IC50? Entry: COCCOCC(=O)Nc1ccc(-c2cnn3c(-c4cccc(NC(=O)c5cccc(C(F)(F)F)c5)c4)ccnc23)cc1 [Example 235]
0.169 µM

Consider the compound CN1CCN(CCCNC(=O)c2cnn3c(-c4cccc(NC(=O)c5cccc(C(F)(F)F)c5)c4)ccnc23)CC1 [Example 50] and give its measured IC50.
8 µM

More entries:
# IC50 lookup, item Cc1ccc(C(=O)Nc2cccc(-c3ccnc4c(C(N)=O)cnn34)c2)cc1C(F)(F)F [Example 67]
> 10 µM

# input compound: CCOC(=O)c1cnn2c(-c3cccc(NC(=O)c4cccc(C#N)c4)c3)ccnc12 [Example 13] ; wanted: its IC50
> 20 µM

Bench note: what IC50 did CCOC(=O)c1cnn2c(-c3cccc(NC(=O)c4ccccc4)c3)ccnc12 [Example 3] show?
> 20 µM

Measured values drawn from patent US20070219186A1 for this set.
